target: CLK2 (human) (UniProt P49760); assay: radiometric filter-binding kinase assay; conditions: compound 10.0 µM
Sequence (P49760 whole entry, looked up): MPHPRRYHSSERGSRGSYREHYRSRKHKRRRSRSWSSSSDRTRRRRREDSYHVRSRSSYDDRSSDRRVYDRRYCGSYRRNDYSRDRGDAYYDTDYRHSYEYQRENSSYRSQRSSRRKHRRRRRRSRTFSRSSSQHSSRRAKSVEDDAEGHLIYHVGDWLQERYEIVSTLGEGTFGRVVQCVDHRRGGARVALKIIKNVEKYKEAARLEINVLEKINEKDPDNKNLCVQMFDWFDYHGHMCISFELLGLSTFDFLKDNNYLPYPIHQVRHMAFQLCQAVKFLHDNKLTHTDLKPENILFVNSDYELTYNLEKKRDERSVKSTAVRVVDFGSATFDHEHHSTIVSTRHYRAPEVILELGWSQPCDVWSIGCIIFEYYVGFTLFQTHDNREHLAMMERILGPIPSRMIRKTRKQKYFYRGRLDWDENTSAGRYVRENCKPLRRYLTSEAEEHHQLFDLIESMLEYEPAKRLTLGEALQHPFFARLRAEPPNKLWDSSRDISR
reported-property: residual activity (%)

Some solved entries appear below for comparison.
Input: Return reported residual activity. Input compound: O=C(N[C@@H](COc1ccc2[nH]c(=O)[nH]c2c1)c1ccccc1)c1cccn(Cc2ccc(F)c(F)c2)c1=O
Output: 74

Input: Return reported residual activity. Input compound: COC(=O)/C=C/C(=O)OC
Output: 92

Input: Return reported residual activity. Input compound: Cc1ccc(Sc2cnc(Nc3cccc(Br)n3)s2)cc1C(=O)N1CCN(C(=O)CN)CC1
Output: 1

Input: Return reported residual activity. Input compound: CCCCCc1ccc(/C=C/[C@H](O)[C@@H](CO)NC)cc1
Output: 97

Input: Return reported residual activity. Input compound: CCCC(CCC)C(=O)O
Output: 90

P = O=C(NOC[C@H](O)CO)c1ccc(F)c(F)c1Nc1ccc(I)cc1Cl
Q = CCOC(=O)c1ccc(N2NC(=O)/C(=C/c3ccc([N+](=O)[O-])o3)C2=O)cc1
Input: Please let me know which one, P or Q , has a lower measured residual activity value. # reply format: chosen label
Output: P
(P: 85%, Q: 126%)

P = NCC(=O)Nc1ccc(-n2nc(C(F)(F)F)cc2-c2ccc3c(ccc4ccccc43)c2)cc1
Q = Nc1cccc2c1CN(C1CCC(=O)NC1=O)C2=O (stereo unspecified)
Input: Thinking about recorded residual activity values, which is higher, P or Q ? # reply format: chosen label
Output: Q
(Q: 98%, P: 64%)
